- Test system: pigweed (Amaranthus retroflexus)
- Assay name: Test A pre-/postemergence: pigweed
- Format: in vivo
- Condition set: Preemergence, 125 g ai/ha; 0 to 100 scale where 0 is no effect and 100 is complete control
Assay metric: Plant response rating, Pigweed
Answers are plain numbers.

These recorded examples may help you get a feel for the data.
> print(dat)
                                   compound                     target.system                    assay.metric  reported.value
1  Cc1nn(-c2ccc(F)cc2)nc1Oc1ccnc(C(F)(F)F)n1 [Compound 101]  pigweed (Amaranthus retroflexus)  Plant response rating, Pigweed             100
2  FCc1nn(-c2ccc(F)cc2)nc1Oc1ccnc(C(F)(F)F)c1 [Compound 160]  pigweed (Amaranthus retroflexus)  Plant response rating, Pigweed             100

Give one value of Plant response rating, Pigweed per listed compound.
1. Cc1nn(-c2ccc(C(F)(F)F)cc2)nc1Oc1cc(C(F)(F)F)nn1C [Compound 104]
2. CC(C)COc1nn(-c2ccc(C(F)(F)F)cc2)nc1Cc1ccnc(C(F)(F)F)c1 [Compound 193]
3. CCCc1nn(-c2ccc(C(F)(F)F)cc2)nc1Oc1ccnc(C(F)(F)F)c1 [Compound 170]
4. CCOc1nn(-c2ccc(F)cc2)nc1C(=O)c1ccnc(C(F)(F)F)c1 [Compound 177]
5. CCCCc1nn(-c2ccc(C(F)(F)F)cc2)nc1Oc1ccnc(C(F)(F)F)c1 [Compound 184]
6. Cc1nn(-c2ccc(C(F)(F)F)c(F)c2)nc1Oc1ccnc(C(F)(F)F)c1 [Compound 148]

30
0
100
10
90
100

Sample Cc1nn(-c2ccc(F)c(F)c2)nc1Cc1ccnc(C(F)F)c1 [Compound 136] — what was its Plant response rating, Pigweed?
90
